- Test system: RXF 393 renal
- TEST: NCI tumour cell line growth inhibition, 48 h
OBSERVED PROPERTY: TGI (µM)
Answers are plain numbers, in µM.

Some solved cases for reference:
[[record]]
compound = "CC(C)(C)O/N=C/c1cc(NC(=S)c2ccsc2)ccc1Cl"
observed_property = "TGI"
unit_spec = "µM"
data_value = 36.8

[[record]]
compound = "Cc1ccc(-c2cc(-c3ccc(Cl)cc3)nc(/N=C3\\C(=O)N(CN(C)C)c4ccccc43)n2)cc1"
observed_property = "TGI"
unit_spec = "µM"
data_value = 63.9

[[record]]
compound = "O=C(NCCNCCNC(=O)c1cc(-c2ccccc2)nc2ccccc12)c1cc(-c2ccccc2)nc2ccccc12"
observed_property = "TGI"
unit_spec = "µM"
data_value = 3.56


Look up TGI for the entries below, preserving their order.
1. CCOC(=O)C1=C(OC(OCC)C(CC)[Se]c2ccccc2)CCC1 (stereo not given)
2. O=[N+]([O-])/C=C/c1ccc(Cl)cc1[N+](=O)[O-]
3. C[As](C)SC1OCC(O)C(O)C1O (stereo not given)
4. Cc1ccc(S(=O)(=O)N2CCNCCN(S(=O)(=O)c3ccc(C)cc3)CCNCC2)cc1
5. Cn1cnnc1[S-].[Au+].c1ccc([PH+](c2ccccc2)c2ccccc2)cc1
6. NC(=O)/C(=C/n1cnc(-c2cc(C(F)(F)F)cc(C(F)(F)F)c2)n1)c1cncnc1
7. COc1ccc(C2C3CCc4ccccc4C3=NN2S(=O)(=O)c2cccc(C(=O)O)c2OC)cc1 (stereo not given)
8. O=c1[nH]cnc2n[nH]nc12

1. 37.7
2. 4.02
3. 3.39
4. 14.7
5. 2.8
6. 0.573
7. 62
8. 14.4

Look up TGI for the entries below, preserving their order.
1. C=CC(=O)Nc1cc2c(Nc3ccc(F)c(Cl)c3)ncnc2cc1C#CC(C)(C)N1CCN(C)CC1
2. O=C1C(=O)C2(CC1S(=O)(=O)c1ccccc1)c1ccccc1-c1ccccc12 (stereo not given)
3. CN(C)c1ccc(C(O)C2=CC(=O)c3ccccc3C2=O)cc1 (stereo not given)
4. O=C1Cc2cn[nH]c2-c2ccccc2N1
5. CCOC(=O)/C(=C\c1ccc2ccccc2c1)P(=O)(OCC)OCC
6. CC(=O)/C(=C\I)c1ccccc1
7. O=C1Nc2ccc3c(c2/C1=C\c1cc2c(cc1Br)OCO2)OCO3
8. CCOc1ccc2cc(-c3nn(CC4CCNCC4)c4ncnc(N)c34)ccc2c1

1: 2.15; 2: 35.6; 3: 56.6; 4: 72.3; 5: 3.46; 6: 3.36; 7: 3.78; 8: 17.1

I would be grateful if you could share the reported TGI for O=[N+]([O-])c1cccc2nccc(NCCN3CCOCC3)c12 . 31.9
